Test system: Vero E6 infected with SARS-CoV-2
procedure-details: inhibition of SARS-CoV-2 cytopathic effect; higher = more antiviral protection, active = above 15
condition-parameters: 10000 nM; 48 h
measured-attribute: inhibition of SARS-CoV-2 cytopathic effect (%)
Express the result in % but write the number alone.

Recorded inhibition of SARS-CoV-2 cytopathic effect, per entry:
Lookup: Suppose we examine the compound O=C(O)C1=CCNCC1 ; what inhibition of SARS-CoV-2 cytopathic effect value has been reported?
Found: 2.12

Lookup: Suppose we examine the compound CCn1cc(C(=O)O)c(=O)c2ccc(-c3ccncc3)cc21 ; what inhibition of SARS-CoV-2 cytopathic effect value has been reported?
Found: 3.73

Lookup: Suppose we examine the compound C[C@]12CC[C@@H]3c4ccc(OC(=O)c5ccccc5)cc4CC[C@H]3[C@@H]1CC[C@@H]2O [estradiol-benzoate] ; what inhibition of SARS-CoV-2 cytopathic effect value has been reported?
Found: -5.99

Others:
Lookup: Suppose we examine the compound NC(=O)c1cnc(N[C@@H]2CCCC[C@@H]2N)nc1Nc1cccc(-n2nccn2)c1 ; what inhibition of SARS-CoV-2 cytopathic effect value has been reported?
Found: 24.4

Lookup: Suppose we examine the compound Cc1cc(O)c2c(c1)C(=O)c1cc(O)cc(O)c1C2=O ; what inhibition of SARS-CoV-2 cytopathic effect value has been reported?
Found: 2.24

----------
System: Vero E6 infected with SARS-CoV-2
procedure-details: inhibition of SARS-CoV-2 cytopathic effect; higher = more antiviral protection, active = above 15
condition-parameters: 10000 nM; 48 h
Reported inhibition of SARS-CoV-2 cytopathic effect by item:
Express the result in % but write the number alone.

Recorded inhibition of SARS-CoV-2 cytopathic effect, per entry:
Lookup: Suppose we examine the compound CCCCCCCCCCC(=O)O[C@H]1CC[C@H]2[C@@H]3CCC4=CC(=O)CC[C@]4(C)[C@H]3CC[C@]12C [Testosterone (undecanoate)] ; what inhibition of SARS-CoV-2 cytopathic effect value has been reported?
Found: 0.21

Lookup: Suppose we examine the compound O=C(N[C@@H]1CC[C@@H](c2cccc(F)c2F)CN(CC(F)(F)F)C1=O)N1CCC(n2c(=O)[nH]c3ncccc32)CC1 [telcagepant] ; what inhibition of SARS-CoV-2 cytopathic effect value has been reported?
Found: 5.63

Lookup: Suppose we examine the compound Cc1ccc(NC(=O)C(C)C)cc1C1CCN(Cc2ccc(Oc3ccc(F)c(F)c3)cc2)CC1 ; what inhibition of SARS-CoV-2 cytopathic effect value has been reported?
Found: -10.5

Lookup: Suppose we examine the compound C[C@H](Cn1cnc2c(N)ncnc21)OCP(=O)(O)O [tenofovir] ; what inhibition of SARS-CoV-2 cytopathic effect value has been reported?
Found: 0.69

Lookup: Suppose we examine the compound CN(C)c1nc(N(C)C)nc(N(C)C)n1 [altretamine] ; what inhibition of SARS-CoV-2 cytopathic effect value has been reported?
Found: 2.53

Others:
Lookup: Suppose we examine the compound COc1ccncc1C(=O)NC(=O)Nc1ccc(-c2ccccc2)c(C(F)(F)F)c1 [S1P1-agonist-III] ; what inhibition of SARS-CoV-2 cytopathic effect value has been reported?
Found: -2.64

Lookup: Suppose we examine the compound O=C(O)CCC(=O)OC[C@@H](NC(=O)C(Cl)Cl)[C@H](O)c1ccc([N+](=O)[O-])cc1 [chloramphenicol-sodium-succinate] ; what inhibition of SARS-CoV-2 cytopathic effect value has been reported?
Found: 1.6

Lookup: Suppose we examine the compound COc1ccc(C(=O)c2ccccc2O)c(O)c1 [dioxybenzone] ; what inhibition of SARS-CoV-2 cytopathic effect value has been reported?
Found: 2.94

----------
Test system: Vero E6 infected with SARS-CoV-2
procedure-details: inhibition of SARS-CoV-2 cytopathic effect; higher = more antiviral protection, active = above 15
condition-parameters: 100 nM; 48 h
Where a name gives a salt, the structure may show the parent alone.
measured-attribute: inhibition of SARS-CoV-2 cytopathic effect (%)
Express the result in % but write the number alone.

Recorded inhibition of SARS-CoV-2 cytopathic effect, per entry:
Lookup: Suppose we examine the compound CNC(=O)Nc1ccc(-c2nc(N3CC4CCC(C3)O4)c3cnn(C4CCC5(CC4)OCCO5)c3n2)cc1 ; what inhibition of SARS-CoV-2 cytopathic effect value has been reported?
Found: 0.34

Lookup: Suppose we examine the compound Oc1ccc(Cl)c2cccnc12 [cloxyquin] ; what inhibition of SARS-CoV-2 cytopathic effect value has been reported?
Found: 2.68

Lookup: Suppose we examine the compound Nc1nc2c(ncn2COC(CO)CO)c(=O)[nH]1 [ganciclovir] ; what inhibition of SARS-CoV-2 cytopathic effect value has been reported?
Found: 2.75

Others:
Lookup: Suppose we examine the compound O=C1C=CC(=O)C2=C1C1c3ccccc3C2c2ccccc21 ; what inhibition of SARS-CoV-2 cytopathic effect value has been reported?
Found: -0.03

Lookup: Suppose we examine the compound CCc1cc2c(s1)-n1c(C)nnc1CN=C2c1ccccc1Cl [etizolam] ; what inhibition of SARS-CoV-2 cytopathic effect value has been reported?
Found: -2.3

Lookup: Suppose we examine the compound C[C@@H](NCCCc1cccc(C(F)(F)F)c1)c1cccc2ccccc12 [cinacalcet] ; what inhibition of SARS-CoV-2 cytopathic effect value has been reported?
Found: 0.77

Lookup: Suppose we examine the compound C=C1CC[C@H](O)C/C1=C/C=C1\CCC[C@]2(C)[C@@H]([C@H](C)/C=C/[C@H](C)C(C)C)CC[C@@H]12 [ergocalciferol] ; what inhibition of SARS-CoV-2 cytopathic effect value has been reported?
Found: 0.95

Lookup: Suppose we examine the compound COC(=O)[C@@H]1[C@H]2C[C@H]3c4[nH]c5ccccc5c4CCN3C[C@@H]2CC[C@@H]1O [yohimbine] ; what inhibition of SARS-CoV-2 cytopathic effect value has been reported?
Found: 1.41

Lookup: Suppose we examine the compound CCNCc1cc(C(C)(C)C)c(O)c(C(C)(C)C)c1 ; what inhibition of SARS-CoV-2 cytopathic effect value has been reported?
Found: 1.78

Lookup: Suppose we examine the compound N=C(N)S/C=C\C(=O)O ; what inhibition of SARS-CoV-2 cytopathic effect value has been reported?
Found: -2.6

Lookup: Suppose we examine the compound Ic1cncc(OC[C@@H]2CCN2)c1 ; what inhibition of SARS-CoV-2 cytopathic effect value has been reported?
Found: 0.14

Lookup: Suppose we examine the compound CCC(=O)O[C@H](CC(=O)O)C[N+](C)(C)C [levocarnitine-propionate] ; what inhibition of SARS-CoV-2 cytopathic effect value has been reported?
Found: 0.32

Lookup: Suppose we examine the compound Cc1nc2n(c(=O)c1CCN1CCC(c3noc4cc(F)ccc34)CC1)CCCC2O (centres undefined) [paliperidone] ; what inhibition of SARS-CoV-2 cytopathic effect value has been reported?
Found: -2.02

Lookup: Suppose we examine the compound O=C(O)C(O)Cc1ccc(O)c(O)c1 (centres undefined) [sodium-danshensu] ; what inhibition of SARS-CoV-2 cytopathic effect value has been reported?
Found: 2.17

Lookup: Suppose we examine the compound O=c1ccc2cc3ccoc3cc2o1 [psoralen] ; what inhibition of SARS-CoV-2 cytopathic effect value has been reported?
Found: 1.55

Lookup: Suppose we examine the compound COc1cc(Br)c(S(=O)(=O)Nc2ccc(Cl)c(O[C@@H]3CCN(C)C3)c2)cc1OC ; what inhibition of SARS-CoV-2 cytopathic effect value has been reported?
Found: -0.06

Lookup: Suppose we examine the compound CN(C)CC/C=C1/c2ccccc2COc2ccc(CC(=O)O)cc21 [Olopatadine hydrochloride (Opatanol)] ; what inhibition of SARS-CoV-2 cytopathic effect value has been reported?
Found: 1.65

Lookup: Suppose we examine the compound CCOC(=O)C1=C(COCCN)NC(C)=C(C(=O)OC)C1c1ccccc1Cl (centres undefined) [amlodipine] ; what inhibition of SARS-CoV-2 cytopathic effect value has been reported?
Found: 1.37

Lookup: Suppose we examine the compound C[C@@H]1C[C@H]2[C@@H]3CCC4=CC(=O)C=C[C@]4(C)[C@@]3(F)[C@@H](O)C[C@]2(C)[C@H]1C(=O)CO [desoximetasone] ; what inhibition of SARS-CoV-2 cytopathic effect value has been reported?
Found: -1.47

----------
Tested on: Vero E6 infected with SARS-CoV-2
procedure-details: inhibition of SARS-CoV-2 cytopathic effect; higher = more antiviral protection, active = above 15
condition-parameters: 1 nM; 48 h
measured-attribute: inhibition of SARS-CoV-2 cytopathic effect (%)
Express the result in % but write the number alone.

Lookup: Suppose we examine the compound CCOC(=O)c1cc(C#N)c(N2CCC(C(=O)NS(=O)(=O)Cc3ccccc3)CC2)nc1C ; what inhibition of SARS-CoV-2 cytopathic effect value has been reported?
Found: 3.08

Lookup: Suppose we examine the compound CCCCS(=O)(=O)N[C@@H](Cc1ccc(OCCCCC2CCNCC2)cc1)C(=O)O ; what inhibition of SARS-CoV-2 cytopathic effect value has been reported?
Found: 1.63

Lookup: Suppose we examine the compound CN(CC[C@@H](Oc1ccc(-c2ccccc2)cc1)c1ccc(F)cc1)CC(=O)O ; what inhibition of SARS-CoV-2 cytopathic effect value has been reported?
Found: 0.18

Lookup: Suppose we examine the compound O=C(Nc1cccc(C(F)(F)F)c1)Nc1cc(S(=O)(=O)NC2CC2)ccc1-c1ccsc1 ; what inhibition of SARS-CoV-2 cytopathic effect value has been reported?
Found: -0.22

Lookup: Suppose we examine the compound CCNC(=O)NS(=O)(=O)c1sc(CC(C)C)cc1-c1ccc(Cn2c(-c3ccccc3)nc(OC)c2C=O)cc1 ; what inhibition of SARS-CoV-2 cytopathic effect value has been reported?
Found: -1.39

Others:
Lookup: Suppose we examine the compound COc1ccc(-c2cc3c(C)nc(N)nc3n([C@H]3CC[C@H](OCCO)CC3)c2=O)cn1 ; what inhibition of SARS-CoV-2 cytopathic effect value has been reported?
Found: -0.21

Lookup: Suppose we examine the compound COc1cc(C[C@@H](CO)[C@H](CO)Cc2ccc(O)c(OC)c2)ccc1O [secoisolariciresinol-(-)] ; what inhibition of SARS-CoV-2 cytopathic effect value has been reported?
Found: 1.65

Lookup: Suppose we examine the compound CCC(C)n1ncn(-c2ccc(N3CCN(c4ccc(OCC5COC(Cn6cncn6)(c6ccc(Cl)cc6Cl)O5)cc4)CC3)cc2)c1=O (stereo not drawn) ; what inhibition of SARS-CoV-2 cytopathic effect value has been reported?
Found: 2.52
